biological target: pooled human IgG (human IgG1, 2, 3 and 4)
metric name: Enzyme Activity Endpoint Assay: Fab′2 (ng/µL)
Give bare numbers, in ng/µL.

Below: 3 proteins and their reported Enzyme Activity Endpoint Assay: Fab′2.
protein	unit	observed
PRT-481 (protein) MVTSVWTKGVTPPTDFIYGEDVLHAPYKAGQGWYDITKAFDGGDDLLCGAATAGNMLHWWFDQNKEQIENYLKKHPEKQKINFNGEQMFDVKEAIDTKDSQTNSELFNYFKEKAFPYLSTKHLGVFPDHVIDMFINGYRLSLTNHGPTPVKRQEKDPRGGIFDAVFGRGDQTKLLTNRHDLKNKTLKEISDLIKQELTEGKALGISHTYANVRINHVINLWGADFDAEGNLEAIYVTDSDSNASIGMKKYFVGVNSNGKVAISAKEIEEDNIGAQVLGLFTLSTGQKIWNKTNLEHHHHHH	ng/µL	1380
PRT-433 (protein) MSQTEDSESLQRLRDIEDFQAEKKKQNVVYTKWLDGVDVKDHDFRKIVDGNIAYYATPLLNGRGFYDINKDFNRDSDKCAAAVAANMFHYWLDRNRDNVDRFLRQNPEKHGIIELPDGQLKLSDFLNTYESDDGYRDKSKLFDFISNNFNGPVWTDKLLDNYINGYAYNYKYGRTIEDPTKNTSKINFFKEVFNEKILTNNHSIRNQNEFSVLLIEALYTGKAIGLSYGPAGLRHSLGHIISVWGADLDADGNVVAIYVTDSDDKKLTIGDERVGLKRYKISTDDEGRLRLTAYEETHNTGGQIRGLWTLDTGKQAWADYFDKTEQTGTDQAEQ	ng/µL	575
PRT-463 (protein) MVTSVWTKGVTPPANFRKIVDGNIAYYHAPYVANQGWYDITKTFNGKDDLLCGAATAGNMLHWWFDQNKDQIERYLKEHPEKQKINFNGEQMFDVKEAIDTKDSQTDSKLFEYFKEKAFPYLSTKHLGVFPDHVLDMFINGYRLSLTNHGPTPVKEGSKDPRGGIFDAVFTRGDQSKLLTSRHDLKNKTLKEISDLIKQELTEGKALGLSHTYANVRINHVINLWGADFDSEGNLKAIYVTDSDSNASIGMKKYFVGVNSAGKVAISAKEIKEDNIGAQVLGLFTLSTGQDIWNQTNLEHHHHHH	ng/µL	821

Consider the record given below.
Ask | // lookup Enzyme Activity Endpoint Assay: Fab′2 for PRT-522 (protein) MITSVWTKGVTPPTDFIKGEDVFHAPYKAGQGWYDITKTFNGKDNLLCGAATAGNMLHWWFDQNKEEIEAYLKKHPEKQKIIFNNQELFDLKAVINTKDSQTNSALFNYFKDKAFPNLSARRLGVFPDLVLDMFINGYYLNVYKTQTTDVNRTYQTKDRRGGIFDAVFTRGVQSKLLTERHDFKEKTLKEISDLIKQELTEGKALGLSHTYANVRINHVINLWGADFDSNGNLEAIYVTDSDTNASIGMKKYFVGVNSAGKVAISAKEIKEDNIGAQVLGLFTLSTGQDIWNQTNLEHHHHHH
Reply | 736
